test system: HuM2e antibody 23K12; assay type: binding, human
valueType: Signal (peptides that bind to 23K21 and 8I10)

[
  {
    "substance": "497 (SLLTECGSCLCEC; epitope peptide) [compound 497]",
    "value": 1077
  },
  {
    "substance": "568 (SLLTEVETPIRNEWGCRCQDSSD; epitope peptide) [compound 568]",
    "value": 877
  },
  {
    "substance": "481 (CSLLTECGMSLCTEV; epitope peptide) [compound 481]",
    "value": 1187
  },
  {
    "substance": "502 (CSCLCEVGSLLTEC; epitope peptide) [compound 502]",
    "value": 1064
  },
  {
    "substance": "300 (SLLTEVETKIRNEWGCRCNDSSD; epitope peptide) [compound 300]",
    "value": 1960
  }
]

###

test system: HuM2e antibody 23K12; assay type: binding, human
Item-by-item account of Signal (peptides that bind to 23K21 and 8I10)
valueType: Signal (peptides that bind to 23K21 and 8I10)

[
  {
    "substance": "515 (SLLTEWETPIRNEWGCRCNDSSD; epitope peptide) [compound 515]",
    "value": 1025
  },
  {
    "substance": "213 (CETPIRNEWGSRSNDSCSLLTEVETC; epitope peptide) [compound 213]",
    "value": 971
  },
  {
    "substance": "694 (SLLTEVETPIRNEWGCRCNESSD; epitope peptide) [compound 694]",
    "value": 720
  },
  {
    "substance": "637 (SLLTEVETPIRNENGCRCNDSSD; epitope peptide) [compound 637]",
    "value": 768
  },
  {
    "substance": "595 (SLLTEVETPIRNEWGWRCNDSSD; epitope peptide) [compound 595]",
    "value": 838
  },
  {
    "substance": "372 (CSLLTEVGMSCLTEV; epitope peptide) [compound 372]",
    "value": 1466
  },
  {
    "substance": "681 (SLLTEVETPIRNEWACRCNDSSD; epitope peptide) [compound 681]",
    "value": 729
  },
  {
    "substance": "649 (SLLTEVETTIRNEWGCRCNDSSD; epitope peptide) [compound 649]",
    "value": 760
  },
  {
    "substance": "586 (SLLTEVETPIRNEWGCRCNISSD; epitope peptide) [compound 586]",
    "value": 851
  },
  {
    "substance": "422 (SLLTEVETPIRNEWGCRCNDSFD; epitope peptide) [compound 422]",
    "value": 947
  },
  {
    "substance": "540 (SLLTEHETPIRNEWGCRCNDSSD; epitope peptide) [compound 540]",
    "value": 942
  },
  {
    "substance": "378 (SLLTECGSLLTEC; epitope peptide) [compound 378]",
    "value": 1426
  },
  {
    "substance": "475 (MSLLTECGMSLCTEV; epitope peptide) [compound 475]",
    "value": 1212
  }
]

###

Item-by-item account of Signal (peptides that show specific binding to Z3G1)
test system: anti-M2 human monoclonal antibody Z3G1; format: binding
valueType: Signal (peptides that show specific binding to Z3G1)

[
  {
    "substance": "594 (SLLTEVQTPIRNEWGCRCNDSSD; epitope peptide) [compound 594]",
    "testedSystem": "anti-M2 human monoclonal antibody Z3G1",
    "value": 2289
  },
  {
    "substance": "692 (SLLTEVETPILNEWGCRCNDSSD; epitope peptide) [compound 692]",
    "testedSystem": "anti-M2 human monoclonal antibody Z3G1",
    "value": 2363
  },
  {
    "substance": "524 (SLLTEVETPIDNEWGCRCNDSSD; epitope peptide) [compound 524]",
    "testedSystem": "anti-M2 human monoclonal antibody Z3G1",
    "value": 2337
  },
  {
    "substance": "1551 (SLLCEVGSCLTEV; epitope peptide) [compound 1551]",
    "testedSystem": "anti-M2 human monoclonal antibody Z3G1",
    "value": 2499
  },
  {
    "substance": "292 (CSLLTEVGSLLTEC; epitope peptide) [compound 292]",
    "testedSystem": "anti-M2 human monoclonal antibody Z3G1",
    "value": 2213
  },
  {
    "substance": "720 (SLLTEVETPIINEWGCRCNDSSD; epitope peptide) [compound 720]",
    "testedSystem": "anti-M2 human monoclonal antibody Z3G1",
    "value": 2262
  },
  {
    "substance": "346 (SLLMEVETPIRNEWGCRCNDSSD; epitope peptide) [compound 346]",
    "testedSystem": "anti-M2 human monoclonal antibody Z3G1",
    "value": 2477
  },
  {
    "substance": "581 (SLLTEVETYIRNEWGCRCNDSSD; epitope peptide) [compound 581]",
    "testedSystem": "anti-M2 human monoclonal antibody Z3G1",
    "value": 2290
  },
  {
    "substance": "648 (SLLTEVETPIRNEWGKRCNDSSD; epitope peptide) [compound 648]",
    "testedSystem": "anti-M2 human monoclonal antibody Z3G1",
    "value": 2295
  },
  {
    "substance": "641 (SLLTEVETPIRNELGCRCNDSSD; epitope peptide) [compound 641]",
    "testedSystem": "anti-M2 human monoclonal antibody Z3G1",
    "value": 2436
  },
  {
    "substance": "290 (CSLLTEVGSLLTCV; epitope peptide) [compound 290]",
    "testedSystem": "anti-M2 human monoclonal antibody Z3G1",
    "value": 2503
  },
  {
    "substance": "201 (CEVETPIRNEWGSRSNCSLLTEVETC; epitope peptide) [compound 201]",
    "testedSystem": "anti-M2 human monoclonal antibody Z3G1",
    "value": 2288
  },
  {
    "substance": "653 (SLLTEVETIIRNEWGCRCNDSSD; epitope peptide) [compound 653]",
    "testedSystem": "anti-M2 human monoclonal antibody Z3G1",
    "value": 2096
  },
  {
    "substance": "556 (SLLTELETPIRNEWGCRCNDSSD; epitope peptide) [compound 556]",
    "testedSystem": "anti-M2 human monoclonal antibody Z3G1",
    "value": 1380
  },
  {
    "substance": "370 (SLLTEVETPIRNEWGERCNDSSD; epitope peptide) [compound 370]",
    "testedSystem": "anti-M2 human monoclonal antibody Z3G1",
    "value": 2286
  },
  {
    "substance": "1562 (SLLCEVGSCLCEC; epitope peptide) [compound 1562]",
    "testedSystem": "anti-M2 human monoclonal antibody Z3G1",
    "value": 2614
  },
  {
    "substance": "576 (SLLTEVETPIFNEWGCRCNDSSD; epitope peptide) [compound 576]",
    "testedSystem": "anti-M2 human monoclonal antibody Z3G1",
    "value": 2176
  },
  {
    "substance": "1563 (DLLTEVETPIRNEWGCRCNDSSD; epitope peptide) [compound 1563]",
    "testedSystem": "anti-M2 human monoclonal antibody Z3G1",
    "value": 2320
  },
  {
    "substance": "538 (LLLTEVETPIRNEWGCRCNDSSD; epitope peptide) [compound 538]",
    "testedSystem": "anti-M2 human monoclonal antibody Z3G1",
    "value": 1399
  },
  {
    "substance": "573 (SLLTEVETPIRNEWGCRTNDSSD; epitope peptide) [compound 573]",
    "testedSystem": "anti-M2 human monoclonal antibody Z3G1",
    "value": 2374
  },
  {
    "substance": "1550 (SLLCEVGCLLTEV; epitope peptide) [compound 1550]",
    "testedSystem": "anti-M2 human monoclonal antibody Z3G1",
    "value": 1997
  },
  {
    "substance": "710 (SLLTEVETPIRREWGCRCNDSSD; epitope peptide) [compound 710]",
    "testedSystem": "anti-M2 human monoclonal antibody Z3G1",
    "value": 2278
  },
  {
    "substance": "454 (SLLTEVETPIMNEWGCRCNDSSD; epitope peptide) [compound 454]",
    "testedSystem": "anti-M2 human monoclonal antibody Z3G1",
    "value": 2369
  },
  {
    "substance": "665 (SLLTEVETPFRNEWGCRCNDSSD; epitope peptide) [compound 665]",
    "testedSystem": "anti-M2 human monoclonal antibody Z3G1",
    "value": 2229
  },
  {
    "substance": "314 (SLLTEVGSLLCEV; epitope peptide) [compound 314]",
    "testedSystem": "anti-M2 human monoclonal antibody Z3G1",
    "value": 2392
  }
]

Hey, just so you know, these numbers are from patent US8932597B2.
